- System: MCF10A
- assay-text: percent viability (nuclei count relative to siNT); higher = more viable cells
- applied-conditions: 20 nM; 72 h
Threshold-based label: percent viability under 60% gives class 1, percent viability not under 60% gives class 0.

>>> group("CCCUUGGGUCUGAUGGGGUAG [hsa-miR-3189-3p]")
"class 1"
>>> group("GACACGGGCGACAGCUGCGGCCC [hsa-miR-602]")
"class 0"
>>> group("UUCUCAAGGAGGUGUCGUUUAU [hsa-miR-513c-5p]")
"class 1"
>>> group("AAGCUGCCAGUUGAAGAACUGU [hsa-miR-22-3p]")
"class 1"
>>> group("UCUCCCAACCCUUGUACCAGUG [hsa-miR-150-5p]")
"class 0"
>>> group("AUCCUAGUCACGGCACCA [hsa-miR-7975]")
"class 1"
>>> group("GGCUCCUUGGUCUAGGGGUA [hsa-miR-4448]")
"class 1"
>>> group("GAAGCUCUCCCCUCCCCGCAG [hsa-miR-6796-3p]")
"class 0"
>>> group("CUCUCUGGCCGUCUACCUUCCA [hsa-miR-3191-5p]")
"class 1"
>>> group("UGCCCAUGCCAUACUUUUGCCUCA [hsa-miR-4641]")
"class 0"
>>> group("CUUAUAUCAGAGGCUGUGGG [hsa-miR-6083]")
"class 1"

---

List of 5+ nucleoli phenotype percent effect values.
- System: MCF10A
- assay-text: 5+ nucleoli phenotype percent effect (relative to siNT 0% and siKIF11 100%); higher = more cells with five or more nucleoli
- applied-conditions: 20 nM; 72 h
measurement-kind: 5+ nucleoli phenotype percent effect (%)

>>> numeric_value("UGCAAAAGUAAUUGCAGUUUUUG [hsa-miR-548aj-5p]")
4.35
>>> numeric_value("CGUCAACACUUGCUGGUUUCCU [hsa-miR-505-3p]")
-7.84
>>> numeric_value("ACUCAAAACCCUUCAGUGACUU [hsa-miR-616-5p]")
21.5
>>> numeric_value("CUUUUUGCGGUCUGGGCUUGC [hsa-miR-129-5p]")
-6.61
>>> numeric_value("AUAUUACCAUUAGCUCAUCUUU [hsa-miR-556-3p]")
-10.1
>>> numeric_value("UGAGAGUGGAAUUCACAGUAUUU [hsa-miR-4693-3p]")
-31.4
>>> numeric_value("AGGUGUGUCUGUAGAGUCC [hsa-miR-3650]")
-24.7
>>> numeric_value("UGAGCACCACACAGGCCGGGCGC [hsa-miR-3663-3p]")
12.4
>>> numeric_value("CUUAUAUCAGAGGCUGUGGG [hsa-miR-6083]")
-34.4
>>> numeric_value("GUGAGUGGGAGCCGGUGGGGCUG [hsa-miR-4758-5p]")
48.5
>>> numeric_value("UUAGUCUCAUGAUCAGACACA [hsa-miR-4474-5p]")
35.6

---

- Test system: MCF10A
- assay-text: one-nucleolus phenotype percent effect (relative to siNT 0% and siNOL11 100%); higher = more cells with one nucleolus (ribosome biogenesis inhibition)
- applied-conditions: 20 nM; 72 h
measurement-kind: one-nucleolus phenotype percent effect (%)

>>> numeric_value("UCAGAUGAUCUAAAGGCCUAUA [hsa-miR-1245b-3p]")
9.29
>>> numeric_value("AAGUCCUGCUUCUGUUGCAG [hsa-miR-6838-3p]")
-6.74
>>> numeric_value("UGGUAGACUAUGGAACGUAGG [hsa-miR-379-5p]")
12.4
>>> numeric_value("GCAGUGGCUCUGAAAUGAACUC [hsa-miR-5693]")
-3.8
>>> numeric_value("GACUAUAGAACUUUCCCCCUCA [hsa-miR-625-3p]")
-5.42
>>> numeric_value("UUGCCAGGGCAGGAGGUGGAA [hsa-miR-5006-5p]")
0.389

---

- System: MCF10A
- assay-text: one-nucleolus phenotype percent effect (relative to siNT 0% and siNOL11 100%); higher = more cells with one nucleolus (ribosome biogenesis inhibition)
- applied-conditions: 20 nM; 72 h
# maps each entry to its one-nucleolus phenotype percent effect
measurement-kind: one-nucleolus phenotype percent effect (%)

>>> numeric_value("GGGUGGGGAUUUGUUGCAUUAC [hsa-miR-92a-2-5p]")
28.3
>>> numeric_value("CAGUGCAAUGAUAUUGUCAAAGC [hsa-miR-301b]")
-11.1
>>> numeric_value("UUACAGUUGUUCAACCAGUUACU [hsa-miR-582-5p]")
-29.2
>>> numeric_value("GAAUACGUCUGGUUGAUCC [hsa-miR-6082]")
-25.8
>>> numeric_value("CGGGGUUUUGAGGGCGAGAUGA [hsa-miR-193b-5p]")
25.4
>>> numeric_value("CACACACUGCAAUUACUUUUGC [hsa-miR-603]")
-5.16
>>> numeric_value("UCUGUGAGACCAAAGAACUACU [hsa-miR-4677-3p]")
23.1
>>> numeric_value("UUUCCGGCUCGCGUGGGUGUGU [hsa-miR-1180]")
12.6
>>> numeric_value("UCCACUCUCCUGGCCCCCAG [hsa-miR-6777-3p]")
-16.2
>>> numeric_value("AUCGGGCCCUCGGCGCCGG [hsa-miR-3181]")
8.67
>>> numeric_value("CACUAGAUUGUGAGCUCCUGGA [hsa-miR-28-3p]")
-9.21
>>> numeric_value("ACUGGACUUGGAGCCAGAAG [hsa-miR-378f]")
-12.4

---

- System: MCF10A
- assay-text: percent viability (nuclei count relative to siNT); higher = more viable cells
- applied-conditions: 20 nM; 72 h
measurement-kind: percent viability (%)

>>> numeric_value("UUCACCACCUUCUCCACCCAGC [hsa-miR-197-3p]")
28.8
>>> numeric_value("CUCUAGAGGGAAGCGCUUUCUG [hsa-miR-519b-5p]")
36.9
>>> numeric_value("UGUAGGCAUGAGGCAGGGCCCAGG [hsa-miR-6806-5p]")
32.5
>>> numeric_value("CAGCGGAGCCUGGAGAGAAGG [hsa-miR-7846-3p]")
41.6
>>> numeric_value("AUCCAGUUCUCUGAGGGGGCU [hsa-miR-5195-3p]")
46.4
>>> numeric_value("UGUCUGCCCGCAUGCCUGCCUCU [hsa-miR-346]")
32.5
>>> numeric_value("GUCCACUUCUGCCUGCCCUGCC [hsa-miR-4436b-5p]")
51.1
>>> numeric_value("AGGGGUGCUAUCUGUGAUUGA [hsa-miR-342-5p]")
10.5
>>> numeric_value("UGUCGUGGGGCUUGCUGGCUUG [hsa-miR-4440]")
58.9
>>> numeric_value("AAUAAAGUUCAUGUAUGGCAA [hsa-miR-5590-3p]")
61.8
>>> numeric_value("AUCCCACCUCUGCCACCA [hsa-miR-1260a]")
42.3
>>> numeric_value("AGGCAUGGGAGGUCAGGUGA [hsa-miR-3622b-5p]")
16.5
>>> numeric_value("UACUAACUGCAGAUUCAAGUGA [hsa-miR-4637]")
140
>>> numeric_value("CACUAGAUUGUGAGCUCCUGGA [hsa-miR-28-3p]")
92.2
>>> numeric_value("CUUUGAGCACAUGAGCAGACGGA [hsa-miR-8055]")
92.5
>>> numeric_value("CGGCGCCCGUGUCUCCUCCAG [hsa-miR-6789-3p]")
59.9
>>> numeric_value("AUGUCCCACCCCCACUCCUGU [hsa-miR-4433b-5p]")
28.3
>>> numeric_value("AGGUUGUCCGUGUUGUCUUCUCU [hsa-miR-494-5p]")
22.3
>>> numeric_value("UGGGAUCCAGACAGUGGGAGAA [hsa-miR-4713-3p]")
26
>>> numeric_value("CAAAUUCGUAUCUAGGGGAAUA [hsa-miR-10a-3p]")
84.8
>>> numeric_value("AAAGGAAAGUGUAUCCUAAAAG [hsa-miR-651-3p]")
139
>>> numeric_value("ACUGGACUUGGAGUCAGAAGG [hsa-miR-378a-3p]")
45.2
>>> numeric_value("GGGGAAAGCGAGUAGGGACAUUU [hsa-miR-3153]")
55.6
>>> numeric_value("UGUGGGAUCUGGAGGCAUCUGG [hsa-miR-4654]")
38.8

---

- System: MCF10A
- assay-text: one-nucleolus phenotype percent effect (relative to siNT 0% and siNOL11 100%); higher = more cells with one nucleolus (ribosome biogenesis inhibition)
- applied-conditions: 20 nM; 72 h
Here, each record is paired with measured one-nucleolus phenotype percent effect data.
measurement-kind: one-nucleolus phenotype percent effect (%)

>>> numeric_value("UCUGGUAUGUAGUAGGUAAUAA [hsa-miR-4774-5p]")
-25.6
>>> numeric_value("CAUCUUCCAGUACAGUGUUGGA [hsa-miR-141-5p]")
-9.13
>>> numeric_value("CUGUAAUAUAAAUUUAAUUUAUU [hsa-miR-2054]")
-17.6
>>> numeric_value("AGGGGUGCUAUCUGUGAUUGA [hsa-miR-342-5p]")
15.1
>>> numeric_value("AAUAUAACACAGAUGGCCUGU [hsa-miR-410]")
-9.74
>>> numeric_value("UAAAUAGAGUAGGCAAAGGACA [hsa-miR-3121-3p]")
-18

Source: the supplement of paper PMC10899765
